Hey, just so you know, these numbers are from ChEMBL document CHEMBL5154759.

- method-summary: Cmax in overnight fasted po dosed Sprague-Dawley rat plasma measured at 0.25 to 24 hrs post dose by LC-MS/MS method
- Assay type: ADME, organism-based
- Design: time upper 24 hrs, time lower 0.25 hrs, route po
readout-kind: Cmax (ng/mL)

# cpd-smiles, endpoint-result
rows = [
    ("O=C(NNc1c(Br)cccc1Br)c1ccc(N2CCOCC2)cc1", 635),
]

====

- method-summary: AUC(0 to infinity) in overnight fasted po dosed Sprague-Dawley rat measured at 0.25 to 24 hrs post dose by LC-MS/MS method
- Type: ADME, organism-based
- Parameters: time upper 24 hrs, time lower 0.25 hrs, route po
- cond: in vivo

# cpd-smiles, unit-abbrev, AUC(0-inf)
rows = [
    ("O=C(NNc1c(Br)cccc1Br)c1ccc(N2CCOCC2)cc1", "ng·h/mL", 1710),
]
